# assay overview: Human liver microsomal stability of compound in microsomal protein, PBS buffer pH 7.4, NADPH, glucose-6-phosphate and glucose-6-phosphate dehydrogenase media. Aliquotes were taken at 5 time points and after stopping the reaction, supernatants were analyzed using HPLC coupled with a tandem mass spectrometer. The elimination constant, half-life, and intrinsic clearance are determined as results using linear regression analysis. The assay has been performed by Enamine biological services, Bienta Ltd.The protocol is publicly available: dx.doi.org/10.17504/protocols.io.5qpvokdb9l4o/v1
# Assay type: ADME, microsomes, Microsome
# details: microsomes
Threshold check on Remaining: at or above 30% gives YES, strictly below gives NO.

# compound, cat
records = [
    ("CNCc1cc(-c2cc3c(N[C@H](c4ccc5c(c4)S(=O)(=O)CCC5)C(C)C)ncnc3[nH]2)co1", "YES"),
    ("CC(C)[C@@H](Nc1ncnc2[nH]c(-c3cncc(S(C)(=O)=O)c3)cc12)c1ccc2c(c1)S(=O)(=O)CCC2", "NO"),
    ("Cn1ncc(-c2cc3c(N[C@@H](c4ccc5c(c4)OCCO5)C(C)(C)C)ncnc3[nH]2)c1C#N", "NO"),
    ("COc1ccc([C@H](Cc2nnn[nH]2)NC(=O)c2ncnc3[nH]ccc23)cc1", "YES"),
    ("CC(C)[C@H](Nc1ncnc2[nH]c(-c3cnn(C)c3C#N)cc12)c1ccc2c(n1)NC(=O)CO2", "NO"),
    ("C[C@H](C(=O)O)[C@@H](NC(=O)c1ncnc2[nH]ccc12)c1ccc(Br)cc1", "YES"),
    ("CCNC(=O)c1cc2c(N[C@@H](c3ccc4c(c3)S(=O)(=O)NCC4)C(C)C)ncnc2[nH]1", "NO"),
    ("CC(C)[C@H](Nc1ncnc2[nH]c(-c3cnn(C)c3C#N)cc12)c1ccc2c(c1)NC(=O)CO2", "NO"),
    ("CC(C)[C@@H](Nc1ncnc2[nH]c(C(=O)N[C@@H]3CCN(C)C3)cc12)c1ccc2c(c1)S(=O)(=O)CCC2", "YES"),
    ("CC(C)[C@H](CO)Nc1ncnc2[nH]ccc12", "YES"),
    ("CC(C)(C)[C@H](Nc1ncnc2[nH]c(-c3cnn(CC(N)=O)c3)cc12)c1ccc2c(c1)OCCO2", "NO"),
    ("CC(C)[C@H](Nc1ncnc2[nH]c(-c3cnn(CC(=O)N(C)C)c3)cc12)c1ccc2c(c1)OCCO2", "NO"),
    ("CC(C)[C@@H](Nc1ncnc(N)c1Cl)c1ccc2c(c1)S(=O)(=O)CCC2", "NO"),
    ("O=C(Nc1ccccc1)Nc1ccc(C(=O)NC2c3cccc(O)c3CC2C(=O)O)cc1 (centres undefined)", "YES"),
    ("CC(C)[C@H](Nc1ncnc2[nH]cc(C(=O)NC3CC3)c12)c1ccc2c(c1)S(=O)(=O)CCC2", "YES"),
    ("COCCNC(=O)c1c[nH]c2ncnc(N[C@@H](c3ccc4c(c3)S(=O)(=O)CCC4)C(C)C)c12", "NO"),
    ("CC(C)[C@H](Nc1ncnc2[nH]c(-c3cnn(CC(=O)N(C)C)c3)cc12)c1ccc2c(c1)S(=O)(=O)CCC2", "NO"),
    ("CC(C)[C@H](Nc1ncnc2[nH]c(C(=O)N[C@@H]3CCN(C)C3)cc12)c1ccc2c(c1)S(=O)(=O)CCC2", "YES"),
    ("CC(C)[C@@H](Nc1ncnc2[nH]cc(C(N)=O)c12)c1ccc2c(c1)OCCO2", "NO"),
    ("CC(C)[C@@H](Nc1ncnc2[nH]c(-c3cnn(CC(N)=O)c3)cc12)c1ccc2c(c1)NC(=O)CO2", "YES"),
    ("CC(C)[C@@H](Nc1ncnc2[nH]ccc12)c1ccc2c(c1)S(=O)(=O)CCO2", "YES"),
    ("CC(C)[C@H](Nc1ncnc2[nH]c(-c3cnn(C)c3C#N)cc12)c1ccc2c(c1)S(=O)(=O)CCC2", "NO"),
    ("CC(C)[C@H](Nc1ncnc2[nH]ccc12)c1ccc2c(c1)NC(=O)CO2", "YES"),
    ("CC(C)[C@@H](Nc1ncnc2[nH]c(-c3cnn(CCC(N)=O)c3)cc12)c1ccc2c(c1)OCCO2", "NO"),
    ("CC(C)[C@@H](Nc1ncnc2[nH]c(-c3cnn(C)c3)cc12)c1ccc2c(c1)S(=O)(=O)NCC2", "NO"),
    ("CNCc1cc(-c2cc3c(N[C@@H](c4ccc5c(c4)S(=O)(=O)NCC5)C(C)C)ncnc3[nH]2)co1", "YES"),
    ("CCNC(=O)c1cc2c(N[C@H](c3ccc4c(c3)OCCO4)C(C)C)ncnc2[nH]1", "YES"),
    ("CC(C)[C@H](Nc1ncnc2[nH]c(C(=O)N[C@H]3CCN(C)C3)cc12)c1ccc2c(c1)S(=O)(=O)CCC2", "YES"),
    ("CCNC(=O)c1cc2c(N[C@@H](c3ccc4c(c3)S(=O)(=O)CCO4)C(C)C)ncnc2[nH]1", "YES"),
    ("CC(C)[C@H](Nc1ncnc2[nH]c(-c3cnn(C)c3)cc12)c1ccc2c(c1)S(=O)(=O)CCC2", "NO"),
    ("CNC(=O)c1cccc(-c2cc3c(N[C@@H](c4ccc5c(c4)S(=O)(=O)CCC5)C(C)C)ncnc3[nH]2)c1", "NO"),
    ("CNC(=O)c1cccc(-c2cc3c(N[C@H](c4ccc5c(c4)S(=O)(=O)CCC5)C(C)C)ncnc3[nH]2)c1", "NO"),
    ("CNC(=O)c1c[nH]c2ncnc(N[C@H](c3ccc4c(c3)S(=O)(=O)CCC4)C(C)C)c12", "NO"),
    ("CNC(=O)c1cc2c(N[C@H](c3ccc4c(c3)S(=O)(=O)CCC4)C(C)C)ncnc2[nH]1", "YES"),
]

----------
# assay overview: Human liver microsomal stability of compound in microsomal protein, PBS buffer pH 7.4, NADPH, glucose-6-phosphate and glucose-6-phosphate dehydrogenase media. Aliquotes were taken at 5 time points and after stopping the reaction, supernatants were analyzed using HPLC coupled with a tandem mass spectrometer. The elimination constant, half-life, and intrinsic clearance are determined as results using linear regression analysis. The assay has been performed by Enamine biological services, Bienta Ltd.The protocol is publicly available: dx.doi.org/10.17504/protocols.io.5qpvokdb9l4o/v1
# Type: ADME, microsomes, Microsome
# details: microsomes
In this section, each of the molecules is paired with its reported CLint.

# structure, CLint
measured = [
    ("CC(C)[C@@H](Nc1ncnc2[nH]ccc12)c1ccc2c(c1)NC(=O)CO2", "31 µL/min/mg"),
    ("CC(C)[C@@H](Nc1ncnc2[nH]c(-c3cnn(CC(=O)N(C)C)c3)cc12)c1ccc2c(c1)OCCO2", "108 µL/min/mg"),
    ("CNC(=O)c1c[nH]c2ncnc(N[C@@H](c3ccc4c(c3)S(=O)(=O)CCC4)C(C)C)c12", "108 µL/min/mg"),
    ("CC(C)[C@@H](Nc1ncnc2[nH]ccc12)c1ccc2c(c1)S(=O)(=O)CCC2", "21 µL/min/mg"),
    ("CC(C)[C@@H](Nc1ncnc2[nH]c(-c3cnn(CC(N)=O)c3)cc12)c1ccc2c(c1)S(=O)(=O)CCC2", "115 µL/min/mg"),
    ("CC(C)[C@@H](Nc1ncnc2[nH]c(-c3cnn(C)c3C#N)cc12)c1ccc2c(c1)OCCO2", "47 µL/min/mg"),
    ("CC(C)[C@@H](Nc1ncnc2[nH]c(-c3cnn(CC(N)=O)c3)cc12)c1ccc2c(n1)OCCO2", "18 µL/min/mg"),
    ("CC(C)[C@@H](Nc1ncnc2[nH]c(-c3cnn(C)c3C#N)cc12)c1ccc2c(c1)NC(=O)CO2", "52 µL/min/mg"),
]

----------
# assay overview: Mouse liver microsomal stability of compound in microsomal protein, PBS buffer pH 7.4, NADPH, glucose-6-phosphate and glucose-6-phosphate dehydrogenase media. Aliquotes were taken at 5 time points and after stopping the reaction, supernatants were analyzed using HPLC coupled with a tandem mass spectrometer. The elimination constant, half-life, and intrinsic clearance are determined as results using linear regression analysis. The assay has been performed by Enamine biological services, Bienta Ltd.The protocol is publicly available: dx.doi.org/10.17504/protocols.io.5qpvokdb9l4o/v1
# Type: ADME, microsomes, Microsome
# details: microsomes
property label: Remaining

# compound, property label, result
records = [
    ("COc1ccc([C@@H](CC(=O)O)NC(=O)c2ncnc3[nH]ccc23)cc1", "Remaining", "94%"),
    ("CC(C)[C@@H](Nc1ncnc2[nH]c(-c3cnn(C)c3C#N)cc12)c1ccc2c(c1)S(=O)(=O)CCC2", "Remaining", "0%"),
    ("CC(C)[C@H](Nc1ncnc2[nH]c(-c3cnn(C)c3C#N)cc12)c1ccc2c(c1)S(=O)(=O)CCC2", "Remaining", "1%"),
    ("CC(C)[C@H](Nc1ncnc2[nH]c(-c3cnn(CC(N)=O)c3)cc12)c1ccc2c(c1)S(=O)(=O)CCC2", "Remaining", "53%"),
    ("CC(C)[C@H](Nc1ncnc2[nH]c(-c3cnn(CC(N)=O)c3)cc12)c1ccc2c(c1)OCCO2", "Remaining", "80%"),
    ("COc1ccc([C@@H](NC(=O)c2[nH]cnc3nccc2-3)C(C)c2nnn[nH]2)cc1 (some centres not stated)", "Remaining", "99%"),
    ("CC(C)[C@H](Nc1ncnc2[nH]c(-c3cnn(C)c3C#N)cc12)c1ccc2c(n1)OCCO2", "Remaining", "27%"),
    ("CNC(=O)c1cccc(-c2cc3c(N[C@H](c4ccc5c(c4)S(=O)(=O)CCC5)C(C)C)ncnc3[nH]2)c1", "Remaining", "4%"),
    ("CNC(=O)Cn1cc(-c2cc3c(N[C@@H](c4ccc5c(c4)OCCO5)C(C)C)ncnc3[nH]2)cn1", "Remaining", "46%"),
    ("CC(C)[C@H](Nc1ncnc2[nH]c(-c3cnn(CC(=O)N(C)C)c3)cc12)c1ccc2c(c1)S(=O)(=O)CCC2", "Remaining", "13%"),
    ("CC(C)[C@@H](Nc1ncnc2[nH]c(-c3cnn(CC(N)=O)c3)cc12)c1ccc2c(c1)NC(=O)CO2", "Remaining", "84%"),
    ("CNCc1cc(-c2cc3c(N[C@@H](c4ccc5c(c4)S(=O)(=O)NCC5)C(C)C)ncnc3[nH]2)co1", "Remaining", "49%"),
    ("CC(C)[C@H](Nc1ncnc2[nH]c(-c3cnn(C)c3)cc12)c1ccc2c(c1)S(=O)(=O)CCC2", "Remaining", "1%"),
    ("CC(C)[C@@H](Nc1ncnc2[nH]ccc12)c1ccc2c(c1)S(=O)(=O)CCO2", "Remaining", "33%"),
    ("COCCNC(=O)c1c[nH]c2ncnc(N[C@@H](c3ccc4c(c3)S(=O)(=O)CCC4)C(C)C)c12", "Remaining", "0%"),
    ("CNC(=O)c1c[nH]c2ncnc(N[C@H](c3ccc4c(c3)S(=O)(=O)CCC4)C(C)C)c12", "Remaining", "0%"),
    ("CCNC(=O)c1cc2c(N[C@@H](c3ccc4c(c3)S(=O)(=O)CCO4)C(C)C)ncnc2[nH]1", "Remaining", "66%"),
]

These measurements were taken from ChEMBL document CHEMBL5442168.
